- Experimental target: T1, soluble dimeric FcγRIIB (extracellular domain fused to hinge-CH2-CH3 of human IgG2) (human, UniProt P31994 43-217)
- T1 construct: extracellular domain; also called FcRIIB; FcRIIB-Fc; not shown: human IgG2 hinge-CH2-CH3
- T1 sequence (looked up): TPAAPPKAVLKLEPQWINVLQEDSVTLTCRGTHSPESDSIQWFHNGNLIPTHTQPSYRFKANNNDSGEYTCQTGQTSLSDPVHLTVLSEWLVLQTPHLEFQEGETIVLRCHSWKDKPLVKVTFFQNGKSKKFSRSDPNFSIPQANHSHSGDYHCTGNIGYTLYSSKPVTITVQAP
- Assay notes: ELISA
Readout name: Binding to FcγRIIB (ELISA) (fold increase)

IgG1 Fc mutant K326Q, K334E, T359N, T366S (antibody) heavy: ASTKGPSVFPLAPSSKSTSGGTAALGCLVKDYFPEPVTVSWNSGALTSGVHTFPAVLQSSGLYSLSSVVTVPSSSLGTQTYICNVNHKPSNTKVDKKVEPKSCDKTHTCPPCPAPELLGGPSVFLFPPKPKDTLMISRTPEVTCVVVDVSHEDPEVKFNWYVDGVEVHNAKTKPREEQYNSTYRVVSVLTVLHQDWLNGKEYKCKVSNQALPAPIEETISKAKGQPREPQVYTLPPSRDELNKNQVSLSCLVKGFYPSDIAVEWESNGQPENNYKTTPPVLDSDGSFFLYSKLTVDKSRWQQGNVFSCSVMHEALHNHYTQKSLSLSPGK: 5
IgG1 Fc mutant D221Y, M252I, A330G, A339T, T359N, V422I, H433L (antibody) heavy: ASTKGPSVFPLAPSSKSTSGGTAALGCLVKDYFPEPVTVSWNSGALTSGVHTFPAVLQSSGLYSLSSVVTVPSSSLGTQTYICNVNHKPSNTKVDKKVEPKSCYKTHTCPPCPAPELLGGPSVFLFPPKPKDTLIISRTPEVTCVVVDVSHEDPEVKFNWYVDGVEVHNAKTKPREEQYNSTYRVVSVLTVLHQDWLNGKEYKCKVSNKALPGPIEKTISKTKGQPREPQVYTLPPSRDELNKNQVSLTCLVKGFYPSDIAVEWESNGQPENNYKTTPPVLDSDGSFFLYSKLTVDKSRWQQGNIFSCSVMHEALLNHYTQKSLSLSPGK: 6
